Protocol Description: AP1 Signaling Pathway (AID 357);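 note: ME-180 reporter cells stimulated with EGF at its EC50 level; % is set by controls: 0 for no effect and ±100 for the full control effect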
Condition Parameters: ME-180 (cervical carcinoma) AP-1-bla reporter, EGF-induced, beta-lactamase ratio, 5 h; at 7.69 µM (top of the series) unless noted
Method: NCGC Assay Overview: Activator protein-1 (AP-1), a transcription factor, plays an important role in tumor genesis by regulating genes involved in cell proliferation, differentiation, apoptosis, and angiogenesis. AP-1 activity is induced by a complex network of signaling pathways that involves extracellular signals, such as growth factors. […] Library compounds were measured for their ability to modulate positively or negatively the action of EC50 EGF on reporter gene activity. […]
Results filed as inconclusive are left out. Calls of active or inactive are those of the source. Calls come from the whole dose curve; as a rule, active = well fitted curve in either direction with a large enough effect (not every such curve was filed as active); inconclusive = small, poorly fitted or top-dose-only effect, or another doubt; inactive = flat fitted curve, though single readings scatter.
Readout Label: activity change, negative = inhibition

| Smiles | Readout Label | Observed Measurement |
| --- | --- | --- |
| O=S(=O)(c1ccccc1)N1CCC2(CCN(C(c3ccccc3)c3ccccc3)CC2)CC1 | activity change, negative = inhibition | -13.4% (inactive) |
| CCNc1ncc2nc(C)c(=O)n(CCC#N)c2n1 | activity change, negative = inhibition | -5.37% (inactive) |
| CN1CCN(c2ncc3nc(CCc4ccccc4)c(=O)n(C4CC4)c3n2)CC1 | activity change, negative = inhibition | 10.3% (inactive) |
| COc1ncc2nc(-c3cccc(C#N)c3)c(=O)n(CCC#N)c2n1 | activity change, negative = inhibition | -2.26% (inactive) |
| N#Cc1ccc(CN2CCCC3(CCN(C(=O)c4cccc(F)c4)CC3)C2)cc1 | activity change, negative = inhibition | 19.4% (inactive) |
| CC(C)NC(=O)N1CCC2(CC1)CCN(C(=O)c1csnn1)CC2 | activity change, negative = inhibition | -2.2% (inactive) |
| O=C(Oc1ccccc1)N1CCC[C@@]2(CCN(c3ncccn3)C2)C1 | activity change, negative = inhibition | 2.93% (inactive) |
| CNc1ccnc(-c2ccccc2OC)n1 | activity change, negative = inhibition | 4.71% (inactive) |
| CN(C)c1ncc2nc(-c3cccc(C#N)c3)c(=O)n(CCC#N)c2n1 | activity change, negative = inhibition | -2.98% (inactive) |
| COc1ncc2nc(-c3ccccc3)c(=O)n(-c3ccccc3)c2n1 | activity change, negative = inhibition | -21.5% (inactive) |
| CC(=O)NCCc1ccc(O)c(O)c1 | activity change, negative = inhibition | -4.94% [at 38 µM] (inactive) |
| CNc1ncncc1-c1c(C)noc1C | activity change, negative = inhibition | -14.2% (inactive) |
| COc1ccc2[nH]cc(CCNc3ncncc3-c3ccc(N(C)C)cc3)c2c1 | activity change, negative = inhibition | -27.6% (inactive) |
| CN(C)C(=O)c1ccc(-c2cc(-n3ccnc3)ncn2)cc1 | activity change, negative = inhibition | -15.5% (inactive) |
| CN1CCCC2(CCN(C(=O)c3cnccn3)CC2)C1 | activity change, negative = inhibition | -9.74% (inactive) |
| O=C(c1cnccn1)N1CCC2(CCN(Cc3nccs3)CC2)CC1 | activity change, negative = inhibition | 2.79% (inactive) |
| CN(C)c1ncc2nc(-c3ccc(F)cc3)c(=O)n(Cc3cccs3)c2n1 | activity change, negative = inhibition | 14.3% (inactive) |
| O=C(Nc1ccccc1)N1CC[C@@]2(CCCN(C(=O)c3cnccn3)C2)C1 | activity change, negative = inhibition | 6.39% (inactive) |
| COc1ccc(NC(=O)N2CCCC3(CCNCC3)C2)cc1 | activity change, negative = inhibition | -1.83% (inactive) |
| CS(=O)(=O)N1CCC2(CC1)CN(c1ccncc1)C2 | activity change, negative = inhibition | -2.13% (inactive) |
| CC(=O)NCCNc1ccnc(-c2ccccc2C(F)(F)F)n1 | activity change, negative = inhibition | 0.161% (inactive) |
| CS(=O)(=O)Nc1cccc(-c2ccc3ncnc(NC4CC4)c3c2)c1 | activity change, negative = inhibition | -14.5% (inactive) |
| CS(=O)(=O)N1CCC2(CCN(c3cccc(-c4ccccc4)c3)CC2)CC1 | activity change, negative = inhibition | -1.25% (inactive) |
| COCCNc1nc(-c2ccccc2OC)nc2ccccc12 | activity change, negative = inhibition | 12.5% (inactive) |
| COCC(=O)N1CCC2(CC1)CCN(C(=O)Nc1cccc(C#N)c1)CC2 | activity change, negative = inhibition | -4.8% (inactive) |
| N#CCCn1c(=O)cnc2cnc(N3CCOCC3)nc21 | activity change, negative = inhibition | -13.7% (inactive) |
| O=C(c1cnccn1)N1CCC[C@@]2(CCN(Cc3cc(C(F)(F)F)cc(C(F)(F)F)c3)C2)C1 | activity change, negative = inhibition | -16.9% (inactive) |
| CC(=O)N1CCC2(CCCN(C(=O)Nc3cccc(F)c3)C2)CC1 | activity change, negative = inhibition | -2.22% (inactive) |
| Cn1cc(-c2nc3cnc(Oc4cccc(Cl)c4)nc3n(CCC#N)c2=O)c2ccccc21 | activity change, negative = inhibition | 0.05% (inactive) |
| COCCn1c(=O)cnc2cnc(Oc3ccccc3)nc21 | activity change, negative = inhibition | -14.7% (inactive) |
| Cc1noc(C)c1-c1ccc2ncnc(NCc3cccnc3)c2c1 | activity change, negative = inhibition | 26.4% (inactive) |
| O=C(Oc1ccccc1)N1CCC2(CC1)CN(c1ccccc1)C2 | activity change, negative = inhibition | 3.75% (inactive) |
| COCCn1c(=O)c(-c2ccccc2)nc2cnc(OCc3ccccc3)nc21 | activity change, negative = inhibition | -11.6% (inactive) |
| COCC(=O)N1CCC2(CC1)CCN(C(=O)Nc1ccc(OC)cc1)CC2 | activity change, negative = inhibition | -6.71% (inactive) |
| CN1CCN(c2ncc3ncc(=O)n(C4CC4)c3n2)CC1 | activity change, negative = inhibition | -15.2% (inactive) |
| O=c1c(-c2ccc(F)c(F)c2)nc2cncnc2n1C1CC1 | activity change, negative = inhibition | 3.77% (inactive) |
| COC(=O)N1CCC2(CC1)CCN(c1ccccc1)CC2 | activity change, negative = inhibition | 8.46% (inactive) |
| O=C(c1cc(C(F)(F)F)cc(C(F)(F)F)c1)N1CCC2(CC1)CCN(c1ccncc1)CC2 | activity change, negative = inhibition | 24.2% (inactive) |
| O=C(c1ccco1)N1CCC2(CC1)CN(c1ccccc1)C2 | activity change, negative = inhibition | -1.6% (inactive) |
| CC(C)NC(=O)N1CC[C@@]2(CCCN(C(=O)c3cc(C(F)(F)F)cc(C(F)(F)F)c3)C2)C1 | activity change, negative = inhibition | 8.49% (inactive) |
| CC(C)NC(=O)N1CCC2(CC1)CCN(C(=O)c1cccc(F)c1)CC2 | activity change, negative = inhibition | 10.6% (inactive) |
| O=c1c(CCc2ccccc2)nc2cnc(N3CCNCC3)nc2n1Cc1ccc(F)cc1 | activity change, negative = inhibition | -10.5% (inactive) |
| O=C(c1ccco1)N1CCC2(CC1)CCN(c1ncccn1)CC2 | activity change, negative = inhibition | -7.74% (inactive) |

Attribution: PubChem BioAssay (NCATS)
